From: paper PMC5701137

# test-target: recombinant human AChE (Homo sapiens)
# Construct: purchased Sigma C1682
# test: Modified Ellman's colorimetric assay for AChE and kinetic studies
# Format: biochemical
# condition-label: 200 µM compound; compared to control; mean of three experiments in triplicate; read-out: AChE % IR (inhibition rate)
inhibition at 200 µM: recorded values

# compound, inhibition at 200 µM
records = [
    ("CCOC(=O)c1sc2ncn(CCc3ccccc3)c(=O)c2c1C", "0%"),
    ("Cc1onc(-c2ccccc2Cl)c1C(=O)N1CCN(Cc2ccc3c(c2)OCO3)CC1", "0.5%"),
    ("O=C(CSc1nnc(-c2cccc(F)c2)o1)N1CCC(Cc2ccccc2)CC1", "10.2%"),
    ("C=C(C)CN1N=C(C)Cn2c1nc1c2c(=O)n(C/C=C/c2ccccc2)c(=O)n1C", "4.1%"),
    ("CC(=O)c1ccc(NC(=O)CN2CCN(c3cccc(C)c3C)CC2)cc1 [Compound D2]", "18.1%"),
    ("COc1cc(OC)cc(C(=O)N2CCN(C(=O)C(c3ccccc3)c3ccccc3)CC2)c1", "0%"),
    ("Clc1cccc(N2CCN(Cc3nnn(Cc4ccco4)n3)CC2)c1", "15.8%"),
    ("COc1ccc(CC(=O)Nc2cc3oc4ccccc4c3cc2OC)cc1", "0%"),
    ("CCn1c(CNC(=O)COc2ccc(Cl)cc2)cc2ccccc21", "22%"),
    ("Cc1cc2nc(C3CCN(CC(=O)Nc4ccccc4)CC3)[nH]c2cc1C", "11.9%"),
    ("CC1(C)CC(=O)C(=CNCC2CCN(C(=O)Cc3ccc(Cl)cc3)CC2)C(=O)C1", "7%"),
    ("CCOc1ccc2[nH]c(=O)c(CN(Cc3ccccc3)C(=O)N3CCCC3)cc2c1", "27.7%"),
    ("CCN(CC)C(=O)c1cccc(Nc2ccc(-c3ccccc3OC)nn2)c1", "> 50%"),
    ("COc1ccc(NC(=O)Cn2nc(C(F)(F)F)c3c2CCCC3)c(OC)c1", "4.2%"),
    ("COc1cccc(OCC(=O)Nc2cc3oc4ccccc4c3cc2OC)c1", "1.5%"),
    ("Cc1ccccc1OCC(=O)Oc1ccc2c(C)cc(=O)oc2c1", "0%"),
    ("COc1ccccc1N1CCN(c2nc(-c3ccc(C)cc3)cc(=O)[nH]2)CC1", "2.6%"),
    ("CC(C)c1ccc(C(=O)CSc2n[nH]c(-c3ccco3)n2)cc1 [Compound E1]", "12%"),
]

---

# test-target: human rChAT (Homo sapiens, UniProt P28329)
# Construct: made in house; host or cells: E. coli BL21 Rosetta2
# Sequence (P28329 119-748): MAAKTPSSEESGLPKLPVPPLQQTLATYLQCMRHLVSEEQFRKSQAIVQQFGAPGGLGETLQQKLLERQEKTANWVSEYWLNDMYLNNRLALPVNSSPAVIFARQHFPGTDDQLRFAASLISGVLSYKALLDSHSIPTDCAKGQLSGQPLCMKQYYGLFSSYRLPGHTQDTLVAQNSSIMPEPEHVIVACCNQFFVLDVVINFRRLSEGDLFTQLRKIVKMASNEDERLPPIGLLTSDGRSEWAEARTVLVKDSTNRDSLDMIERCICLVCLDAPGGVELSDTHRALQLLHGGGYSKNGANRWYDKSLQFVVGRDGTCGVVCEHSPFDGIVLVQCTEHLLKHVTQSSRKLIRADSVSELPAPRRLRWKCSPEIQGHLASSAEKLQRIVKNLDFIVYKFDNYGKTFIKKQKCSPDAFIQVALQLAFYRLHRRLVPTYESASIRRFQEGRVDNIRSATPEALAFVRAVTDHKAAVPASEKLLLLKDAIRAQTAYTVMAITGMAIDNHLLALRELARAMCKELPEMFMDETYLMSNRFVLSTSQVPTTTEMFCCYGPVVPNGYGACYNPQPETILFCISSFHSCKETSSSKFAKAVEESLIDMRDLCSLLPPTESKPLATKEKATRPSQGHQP
# test: In vitro ChAT activity inhibition fluorometric assay and kinetic studies
# Type: biochemical
# condition-label: 100 µM compound; compared to control; mean of three experiments in triplicate; read-out: ChAT % IR (inhibition rate)

# molecule, unit-of-measurement, bound-sign, inhibition at 100 µM
measured = [
    ("COc1cc(OC)cc(C(=O)N2CCN(C(=O)C(c3ccccc3)c3ccccc3)CC2)c1", "%", "=", 0),
    ("COc1cccc(OCC(=O)Nc2cc3oc4ccccc4c3cc2OC)c1", "%", "=", 4.8),
    ("COCCNc1c(-c2cc3cc(C)ccc3[nH]c2=O)nc2ccc(Cl)cn12", "%", "=", 0),
    ("Cc1onc(-c2ccccc2Cl)c1C(=O)N1CCN(Cc2ccc3c(c2)OCO3)CC1", "%", "=", 0),
    ("CCn1c(CNC(=O)COc2ccc(F)cc2)cc2ccccc21", "%", "=", 0),
    ("C=C(C)CN1N=C(C)Cn2c1nc1c2c(=O)n(C/C=C/c2ccccc2)c(=O)n1C", "%", "=", 0),
    ("CCOc1ccc2[nH]c(=O)c(CN(Cc3ccccc3)C(=O)N3CCCC3)cc2c1", "%", "=", 0),
    ("COc1cc(CN2CCC(C(=O)N3CCC(C)CC3)CC2)ccc1OCc1ccccc1", "%", "=", 0),
    ("O=C(NC1CCCC1)c1ccc(CN2CCN(Cc3ccccc3)CC2)cc1", "%", "=", 6.9),
    ("O=C(CSc1nnc(-c2cccc(F)c2)o1)N1CCC(Cc2ccccc2)CC1", "%", "=", 10.3),
    ("COc1ccc(NC(=O)Cn2nc(C(F)(F)F)c3c2CCCC3)c(OC)c1", "%", "=", 0),
    ("Cc1cc2nc(C3CCN(CC(=O)Nc4ccccc4)CC3)[nH]c2cc1C", "%", "=", 0),
    ("O=C(NCc1ccc(CN2CCCCC2)cc1)c1nc(-c2ccc(C(F)(F)F)cc2)no1", "%", "=", 0),
    ("CC(C)c1ccc(C(=O)CSc2n[nH]c(-c3ccco3)n2)cc1 [Compound E1]", "%", ">", 50),
]

---

# Test system: HEK 293 cells
# test: MTT cell viability assay
# Format: cell-based
# condition-label: 50 µM, overnight; control cells 100%; mean ± SD of 3 readings
Readings of % of cell proliferation for the listed compounds

# compound, % of cell proliferation, %
measured = [
    ("CCN(CC)C(=O)c1cccc(Nc2ccc(-c3ccccc3OC)nn2)c1", 66.2),
    ("CCn1c(CNC(=O)COc2ccc(F)cc2)cc2ccccc21", 84.0),
    ("CCn1c(CNC(=O)COc2ccccc2F)cc2ccccc21", 76.2),
    ("O=C(NCc1ccc(CN2CCCCC2)cc1)c1nc(-c2ccc(C(F)(F)F)cc2)no1", 36.1),
    ("CC(C)NC(=O)C1CCN(C(=O)c2csc(Nc3cccc4ccccc34)n2)CC1", 74.2),
    ("COc1cc(CN2CCN(Cc3ccccc3Cl)CC2)c([N+](=O)[O-])cc1OC", 68.1),
    ("CC(C)c1ccc(C(=O)CSc2n[nH]c(-c3ccco3)n2)cc1 [Compound E1]", 75.4),
    ("O=C(NC1CCCC1)c1ccc(CN2CCN(Cc3ccccc3)CC2)cc1", 72.2),
]

---

# test-target: recombinant human AChE (Homo sapiens, UniProt P22303)
# Sequence (P22303 32-614): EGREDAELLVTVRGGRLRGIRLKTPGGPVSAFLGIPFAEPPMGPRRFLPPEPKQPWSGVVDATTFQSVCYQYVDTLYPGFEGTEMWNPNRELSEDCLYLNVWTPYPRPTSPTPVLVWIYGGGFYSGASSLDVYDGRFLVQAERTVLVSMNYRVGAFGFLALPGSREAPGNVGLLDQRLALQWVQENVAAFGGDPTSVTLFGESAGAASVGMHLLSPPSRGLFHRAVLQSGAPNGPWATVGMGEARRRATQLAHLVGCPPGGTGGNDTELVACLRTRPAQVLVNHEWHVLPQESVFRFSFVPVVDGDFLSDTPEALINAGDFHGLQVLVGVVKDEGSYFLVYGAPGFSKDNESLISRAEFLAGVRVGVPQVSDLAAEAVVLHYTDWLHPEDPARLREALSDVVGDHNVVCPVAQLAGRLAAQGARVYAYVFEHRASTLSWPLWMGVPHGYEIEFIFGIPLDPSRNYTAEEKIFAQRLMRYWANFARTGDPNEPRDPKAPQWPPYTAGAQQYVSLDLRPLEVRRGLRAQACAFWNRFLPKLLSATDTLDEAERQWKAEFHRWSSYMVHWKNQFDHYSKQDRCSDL
# test: Modified Ellman's colorimetric assay for AChE and kinetic studies
# condition-label: mean of two experiments
pKi: −log10 of the molar value.
Recorded pKi by entry

# molecule, pKi
rows = [
    ("CCN(CC)C(=O)c1cccc(Nc2ccc(-c3ccccc3OC)nn2)c1", 3.75),
    ("CN(C(=O)COc1ccc(-c2nn(C)c(=O)c3ccccc23)cc1)C1CCCCC1", 4.37),
    ("COc1cc(CN2CCN(Cc3ccccc3Cl)CC2)c([N+](=O)[O-])cc1OC", 3.85),
    ("O=C(NCc1ccc(CN2CCCCC2)cc1)c1nc(-c2ccc(C(F)(F)F)cc2)no1", 4.63),
    ("O=C(Nc1ccc(CN2CCOCC2)cc1)c1ccc2c(c1)[nH]c(=O)n2CCc1ccccc1", 4.18),
]

---

# test-target: recombinant human AChE (Homo sapiens)
# Construct: purchased Sigma C1682
# test: Modified Ellman's colorimetric assay for AChE and kinetic studies
# Assay type: biochemical
# condition-label: 200 µM compound; compared to control; mean of three experiments in triplicate; read-out: AChE % IR (inhibition rate)

# molecule, test-target, inhibition at 200 µM [%]
data = [
    ("CCn1c(CNC(=O)COc2ccc(F)cc2)cc2ccccc21", "recombinant human AChE (Homo sapiens)", 4.9),
    ("CCn1c(CNC(=O)COc2ccccc2F)cc2ccccc21", "recombinant human AChE (Homo sapiens)", 0),
    ("COc1ccc(-c2cc(C(F)(F)F)nc(SCCC(=O)N3CCN(C)CC3)n2)cc1", "recombinant human AChE (Homo sapiens)", 0),
    ("Cc1c(C)n(C(=O)CSc2nnc(-c3ccccc3)o2)c2ccccc12", "recombinant human AChE (Homo sapiens)", 0),
]

---

# test-target: plasma BuChE (Homo sapiens)
# Construct: 1:450 diluted solution of a pooled human plasma; from tissue; host or cells: pooled human plasma
# Sequence (P06276 29-602): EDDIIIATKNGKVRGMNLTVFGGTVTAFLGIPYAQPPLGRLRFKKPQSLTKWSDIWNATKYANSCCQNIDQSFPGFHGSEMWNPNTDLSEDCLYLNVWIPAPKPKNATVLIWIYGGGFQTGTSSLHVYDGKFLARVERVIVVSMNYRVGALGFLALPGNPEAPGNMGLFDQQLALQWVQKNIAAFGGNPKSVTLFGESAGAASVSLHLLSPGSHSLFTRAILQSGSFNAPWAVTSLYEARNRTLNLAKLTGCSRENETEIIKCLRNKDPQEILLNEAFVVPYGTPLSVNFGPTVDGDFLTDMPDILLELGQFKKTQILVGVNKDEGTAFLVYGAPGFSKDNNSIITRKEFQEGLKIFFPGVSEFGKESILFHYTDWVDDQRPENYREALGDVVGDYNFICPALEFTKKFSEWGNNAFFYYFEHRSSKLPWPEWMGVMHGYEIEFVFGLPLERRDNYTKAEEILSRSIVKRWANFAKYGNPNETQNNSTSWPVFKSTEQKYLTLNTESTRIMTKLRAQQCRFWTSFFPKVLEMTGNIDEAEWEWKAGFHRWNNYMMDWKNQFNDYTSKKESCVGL
# test: Modified Ellman's colorimetric assay for BuChE (pooled human plasma) and kinetic studies
# Format: biochemical
# condition-label: 200 µM compound; compared to control; mean of three experiments in triplicate; read-out: BuChE % IR (inhibition rate)
Assign Met whenever inhibition at 200 µM does not fall below 20%; assign Not met whenever it does.

# molecule, class-assignment
measured = [
    ("CC(=O)c1ccc(NC(=O)CN2CCN(c3cccc(C)c3C)CC2)cc1 [Compound D2]", "Not met"),
    ("O=C(NCc1ccc(CN2CCCCC2)cc1)c1nc(-c2ccc(C(F)(F)F)cc2)no1", "Met"),
    ("Clc1cccc(N2CCN(Cc3nnn(Cc4ccco4)n3)CC2)c1", "Met"),
    ("CC(C)c1ccc(C(=O)CSc2n[nH]c(-c3ccco3)n2)cc1 [Compound E1]", "Not met"),
    ("COc1cc(CN2CCC(C(=O)N3CCC(C)CC3)CC2)ccc1OCc1ccccc1", "Met"),
    ("CCOC(=O)c1sc2ncn(CCc3ccccc3)c(=O)c2c1C", "Not met"),
    ("C=C(C)CN1N=C(C)Cn2c1nc1c2c(=O)n(C/C=C/c2ccccc2)c(=O)n1C", "Not met"),
    ("CN(C(=O)COc1ccc(-c2nn(C)c(=O)c3ccccc23)cc1)C1CCCCC1", "Not met"),
    ("COc1ccc(CC(=O)Nc2cc3oc4ccccc4c3cc2OC)cc1", "Not met"),
    ("COc1ccccc1N1CCN(c2nc(-c3ccc(C)cc3)cc(=O)[nH]2)CC1", "Not met"),
    ("COc1ccc(-c2nnc(-c3cc4c(ccc5ccccc54)oc3=O)o2)cc1", "Met"),
    ("COc1cc(OC)cc(C(=O)N2CCN(C(=O)C(c3ccccc3)c3ccccc3)CC2)c1", "Not met"),
    ("CC1(C)CC(=O)C(=CNCC2CCN(C(=O)Cc3ccc(Cl)cc3)CC2)C(=O)C1", "Not met"),
    ("COc1cc(CN2CCN(Cc3ccccc3Cl)CC2)c([N+](=O)[O-])cc1OC", "Not met"),
    ("CCn1c(CNC(=O)COc2ccc(F)cc2)cc2ccccc21", "Met"),
    ("CC(C)NC(=O)C1CCN(C(=O)c2csc(Nc3cccc4ccccc34)n2)CC1", "Met"),
    ("CCOc1ccc2[nH]c(=O)c(CN(Cc3ccccc3)C(=O)N3CCCC3)cc2c1", "Met"),
]
